- Species on record: Rattus norvegicus
- PROTOCOL NOTES: Open TG-GATES - Regimen: Single
- Type: toxicity, organism-based, Sprague-Dawley
- Parameters: regimen Single, gender Male, age 6 weeks
- RECORDED CONDITIONS: in vivo, po, 100 mg/kg, 3 h, tissue Plasma, route gavage, dose level Low

CHEMICAL STRING	Na (meq/L)
COC(=O)C1=C(C)NC(C)=C(C(=O)OC)C1c1ccccc1[N+](=O)[O-]	135.6
CNC(=C[N+](=O)[O-])NCCSCc1ccc(CN(C)C)o1	141
O=C(OC[C@H]1O[C@@H](OC(=O)c2cc(O)c(O)c(OC(=O)c3cc(O)c(O)c(O)c3)c2)[C@H](OC(=O)c2cc(O)c(O)c(OC(=O)c3cc(O)c(O)c(O)c3)c2)[C@@H](OC(=O)c2cc(O)c(O)c(OC(=O)c3cc(O)c(O)c(O)c3)c2)[C@@H]1OC(=O)c1cc(O)c(O)c(OC(=O)c2cc(O)c(O)c(O)c2)c1)c1cc(O)c(O)c(OC(=O)c2cc(O)c(O)c(O)c2)c1	139.2
Cc1nnc2n1-c1ccc(Cl)cc1C(c1ccccc1Cl)=NC2	141.4
CN/C(=N/CCSCc1nc[nH]c1C)NC#N	140.6

This collection of values is drawn from ChEMBL document CHEMBL3885861.
